Measured values drawn from PubChem BioAssay AID504898 for this set.

Let's look at some molecules and their measured growth inhibition.
assay: Mycobacterium tuberculosis H37Rv growth inhibition, glycerol free medium, confirmatory dose response (AID 504898); conditions: M. tuberculosis H37Rv growth inhibition, glycerol-free medium; at 100 µM (top of the series)

MOLECULE | MEASUREMENT_UNIT | growth inhibition
CCSc1nc(C)c(C)c(=O)[nH]1 | % | 3.43
O=c1[nH]c(=S)[nH]c2ccccc12 | % | -2.86
O=C(CSc1nc2ccccc2c(=O)[nH]1)N1CCOCC1 | % | 3.26
CN(C(=O)CSc1nc2ccccc2c(=O)[nH]1)C1CCCCC1 | % | 2.63
COC(=O)C(Nc1nc(SCC(=O)NC2CCCCC2)nc2ccccc12)c1ccccc1 (configuration not stated) | % | -4.58
CCC(Sc1nc2c(c(=O)[nH]1)CCC2)C(=O)Nc1cccc(OC)c1 (configuration not stated) | % | -0.59
NC(=O)CSc1nc2ccccc2c(=O)[nH]1 | % | 3.58
Cc1cnc(SCC(=O)NC2CCCCC2)[nH]c1=O | % | -3.1
Cc1cc(=O)[nH]c(SCC(=O)NC2CCCCC2)n1 | % | -3.3
Cc1nc(SCC(=O)N(C)c2ccccc2)[nH]c(=O)c1C | % | -9.33
O=C(CSc1ncccn1)NC1CCCCC1 | % | -3.37
COc1cccc(NC(=O)CSc2nc3ccccc3c(=O)[nH]2)c1 | % | -2.5
O=C(CSc1ccccn1)NC1CCCCC1 | % | 13.4
CN(C)C(=O)CSc1nc2ccccc2c(=O)[nH]1 | % | 4.4
COC(=O)c1ccc(CNc2c(N3CCCC3)c(=O)c2=O)cc1 | % | 0.74
Cc1ccc(NC(=O)CSc2nc3ccccc3c(=O)[nH]2)cc1Cl | % | -2.52
Nc1cc(=O)[nH]c(SCC(=O)NC2CCCCC2)n1 | % | 0.56
CCOC(=O)CSc1nc(C)c(C)c(=O)[nH]1 | % | -0.94
CCSc1nc2ccccc2c(=O)[nH]1 | % | -0.83
Cc1nc(SCC(N)=O)[nH]c(=O)c1C | % | 3
CCC(Sc1nc2ccccc2c(=O)[nH]1)C(=O)Nc1cccc(OC)c1 (configuration not stated) | % | -0.61
CC(Sc1nc2ccccc2c(=O)[nH]1)C(=O)NC1CCCCC1 (configuration not stated) | % | -1.37

###

test: Mycobacterium tuberculosis H37Rv growth inhibition, glycerol free medium, confirmatory dose response (AID 504898); settings: M. tuberculosis H37Rv growth inhibition, glycerol-free medium; at 100 µM (top of the series)
Let's look at some compounds and their measured growth inhibition.

COMPOUND | growth inhibition [%]
Cn1c(SCC(=O)NC2CCCCC2)nc2ccccc2c1=O | -3.28
COc1ccc(NC(=O)CSc2nc3ccccc3c(=O)[nH]2)cc1 | 1.8
Cc1c[nH]c(=S)[nH]c1=O | -1.93
CN1CCC(NC(=O)CSc2nc3ccccc3c(=O)[nH]2)CC1 | -4
NC(=O)c1cnccn1 | 3.35
COc1cccc(NC(=O)CSc2nc3c(c(=O)[nH]2)CCC3)c1 | -9.1
O=c1[nH]c(SCc2ccccc2Cl)nc2c1CCCC2 | 0.45
Cc1cc(=O)[nH]c(=S)[nH]1 | -2.75
O=C(CSc1nccc(=O)[nH]1)NC1CCCCC1 | -5.34
Cc1[nH]c(=S)[nH]c(=O)c1C | -2.88
CCC(Sc1nc2ccccc2c(=O)[nH]1)C(=O)NC1CCCCC1 (stereo not drawn) | -0.87
CC1CCN(C(=O)CSc2nc3ccccc3c(=O)[nH]2)CC1 | -0.8
Cc1nc(SCc2ccccc2Cl)[nH]c(=O)c1C | -0.81
